Property: AC50; scope: individual compounds
target: Glucocorticoid receptor (Homo sapiens, UniProt P04150); further: assay procedure not described here
Sequence (P04150 whole entry): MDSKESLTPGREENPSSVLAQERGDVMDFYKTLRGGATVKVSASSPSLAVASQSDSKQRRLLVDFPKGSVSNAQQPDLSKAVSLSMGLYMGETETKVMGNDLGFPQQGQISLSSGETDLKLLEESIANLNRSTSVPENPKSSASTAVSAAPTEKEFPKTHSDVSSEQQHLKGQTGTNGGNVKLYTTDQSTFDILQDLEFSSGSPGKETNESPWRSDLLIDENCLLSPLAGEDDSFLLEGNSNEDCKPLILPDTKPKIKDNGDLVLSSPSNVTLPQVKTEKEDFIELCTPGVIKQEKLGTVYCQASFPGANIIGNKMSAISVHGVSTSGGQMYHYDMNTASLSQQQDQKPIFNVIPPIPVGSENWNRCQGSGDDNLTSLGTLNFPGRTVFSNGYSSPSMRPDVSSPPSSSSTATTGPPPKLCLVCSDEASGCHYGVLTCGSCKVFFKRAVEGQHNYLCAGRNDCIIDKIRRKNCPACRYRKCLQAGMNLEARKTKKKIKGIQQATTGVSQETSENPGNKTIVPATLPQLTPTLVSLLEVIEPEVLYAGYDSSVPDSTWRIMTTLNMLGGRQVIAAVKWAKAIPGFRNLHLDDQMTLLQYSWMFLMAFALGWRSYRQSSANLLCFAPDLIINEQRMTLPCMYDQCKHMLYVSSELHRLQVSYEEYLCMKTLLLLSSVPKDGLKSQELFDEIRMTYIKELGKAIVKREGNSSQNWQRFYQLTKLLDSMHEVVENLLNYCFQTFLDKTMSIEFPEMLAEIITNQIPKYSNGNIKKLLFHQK
EXPERIMENTAL_READOUT: AC50

• CCc1ccc(CCOc2ccc(CC3SC(=O)NC3=O)cc2)nc1 (stereo not given) = > 30 µM
• CCCS(=O)(=O)Nc1ccc(F)c(C(=O)c2c[nH]c3ncc(-c4ccc(Cl)cc4)cc23)c1F = > 30 µM
• COc1ccccc1OCC(O)COC(N)=O (stereo not given) = > 30 µM
• C[C@@H]1O[C@@H]1P(=O)(O)O = > 30 µM
• C[C@H]1C[C@@H]2[C@H]([C@@H](O)C[C@@]3(C)[C@H]2CC[C@]3(O)C(=O)COC(=O)CCC(=O)O)[C@@]2(C)C=CC(=O)C=C12 [METHYLPREDNISOLONE HEMISUCCINATE] = 0.67 µM

---

The molecules below have reported AC50 for Delta-type opioid receptor (Homo sapiens, UniProt P41143).
EXPERIMENTAL_READOUT: AC50

- Cc1cccc(C)c1NC(=O)C1CCCCN1C (stereo not given) [MEPIVACAINE]: > 30 µM
- CCc1ccc(CCOc2ccc(CC3SC(=O)NC3=O)cc2)nc1 (stereo not given) [PIOGLITAZONE]: > 10 µM
- CO/N=C(\C(=O)N[C@@H]1C(=O)N2C(C(=O)OCOC(=O)C(C)(C)C)=C(C)CS[C@H]12)c1csc(N)n1: > 30 µM
- CCCCCOC(=O)Nc1nc(=O)n([C@@H]2O[C@H](C)[C@@H](O)[C@H]2O)cc1F [CAPECITABINE]: > 30 µM
- N[C@@H](CSCC(=O)O)C(=O)O [CARBOCYSTEINE]: > 30 µM
- CCCCN1CCCCC1C(=O)Nc1c(C)cccc1C (stereo not given) [BUPIVACAINE]: > 30 µM
- CCN(CC)CCNC(=O)c1cc(Cl)c(N)cc1OC [METOCLOPRAMIDE]: > 30 µM
- CN1C(=O)COc2c(C(=O)NC3CN4CCC3CC4)cc(Cl)cc21 (stereo not given) [AZASETRON]: > 30 µM
- Cc1c(C(=O)Nc2ccc(N3C[C@@H](C)O[C@@H](C)C3)nc2)cccc1-c1ccc(OC(F)(F)F)cc1 [SONIDEGIB]: > 10 µM
- CC(C(=O)O)c1ccc(N2CC=CC2)c(Cl)c1 (stereo not given) [PIRPROFEN]: > 30 µM

---

The compounds below have reported AC50 for D(3) dopamine receptor (Homo sapiens).
EXPERIMENTAL_READOUT: AC50

- COC(=O)[C@@H]1CC2=CC(=O)CC[C@]2(C)[C@@]23O[C@@H]2C[C@@]2(C)[C@@H](CC[C@@]24CCC(=O)O4)[C@H]13 [EPLERENONE]: > 30 µM
- COc1ccccc1OCC(O)COC(N)=O (stereo not given) [METHOCARBAMOL]: > 30 µM
- CC(C)Cc1ccc(CC(=O)O)cc1 [IBUFENAC]: > 30 µM
- O=C1CN=C(c2ccccc2)c2cc(Cl)ccc2N1CC(F)(F)F [HALAZEPAM]: > 30 µM
- CCCCCCC(C)(C)c1cc(O)c2c(c1)OC(C)(C)C1CCC(=O)CC21 (stereo not given) [NABILONE]: > 30 µM
- COc1ccc(C(=O)NCc2ccc(OCCN(C)C)cc2)cc1OC [ITOPRIDE]: 20 µM
- CNC(=O)c1cc(Oc2ccc(NC(=O)Nc3ccc(Cl)c(C(F)(F)F)c3)cc2)ccn1 [SORAFENIB]: > 30 µM
- CN1C(=O)COc2c(C(=O)NC3CN4CCC3CC4)cc(Cl)cc21 (stereo not given) [AZASETRON]: > 30 µM
- CC(C)[N+](C)(CCC(C(N)=O)(c1ccccc1)c1ccccc1)C(C)C [ISOPROPAMIDE]: > 30 µM
- CN(CCOc1ccc(NS(C)(=O)=O)cc1)CCc1ccc(NS(C)(=O)=O)cc1 [DOFETILIDE]: 0.78 µM
